assay: gradient 5% acetonitrile 3 min, to 50% in 2 min, to 85% in 15 min, held 3 min, 100 µL/min; conditions: column: Zorbax Extend-C18 2.1 x 50 mm; eluents: water / acetonitrile, 0.1% formic acid
Classify: 1.0 when RP-LC retention time is strictly less than 900 s; 0.0 when RP-LC retention time is not.

Study these solved cases before continuing.
> print(dat)
                                   molecule  discrete.label
1  COc1ccc(-c2csc(NC(=O)c3ccc(Br)s3)n2)cc1OC             0.0
2  O=C(NCc1ccccc1)C1CCN(C(=O)c2ncn3c2COC(c2ccccc2)C3)CC1 (centres undefined)             1.0
3  COc1ccc(OC)c(NC(=O)N2CCCC(C)(C(=O)NCc3ccc(C)cc3)C2)c1 (centres undefined)             0.0

Asked: Please let me know if CCN(CC)c1nc2cc(C(=O)NCCC(C)C)ccc2c(=O)n1-c1ccccc1 shows RP-LC retention time below 900 s.
Given back: 0.0

Asked: Record O=C(O)c1cc(-c2ccc3c(c2)OCO3)nc2cc3c(cc12)OCCO3 : is its RP-LC retention time strictly below 900 s?
Given back: 1.0

Asked: Is 900 s strictly greater than the molecule's reported RP-LC retention time? molecule: Cc1nc(C)c(C(=O)Nc2nc(-c3ccc(Cl)cc3)cs2)s1
Given back: 0.0

Asked: Please determine if CC(C)c1noc(C2(NC(=O)c3ccc(C(F)(F)F)cc3)CCCCC2)n1 is below 900 s in terms of RP-LC retention time.
Given back: 0.0

====

assay: gradient 5% acetonitrile 3 min, to 50% in 2 min, to 85% in 15 min, held 3 min, 100 µL/min; conditions: column: Zorbax Extend-C18 2.1 x 50 mm; eluents: water / acetonitrile, 0.1% formic acid
property_measured: RP-LC retention time (s)
One number for each entry, in s.

These recorded examples may help you get a feel for the data.
> print(dat)
                                   compound  unit.tag  result
1  Cc1ccc(CNC(=O)C2(C)CN(S(C)(=O)=O)CC(=O)N2c2ccc(C)cc2C)cc1 (stereo not given)         s     864
2  CC(C)(C)NCC(O)COc1ccc(NC(=O)NC2CCCCC2)cc1 (stereo not given)         s     628

For every listed record, write down its RP-LC retention time.
1. CCC(C)(C)C(=O)NC1CCN(c2cnn(CC3CC3)c(=O)c2)CC1
2. COc1cccc(NC(=O)C2CCCN(c3nc4ccccc4nc3OC)C2)c1 (stereo not given)
3. Cc1nc(-c2cccc(NC(=O)Cc3csc(Nc4ncccn4)n3)c2)cs1
4. C=CC(=O)Nc1cccc(Oc2nc(Nc3ccc(N4CCN(C)CC4)cc3OC)ncc2Cl)c1
5. Cc1nc(N2CCN(c3ccc(F)cc3)CC2)ncc1C(=O)O
6. NS(=O)(=O)c1ccc(NC(=O)CN2C(=O)c3ccccc3C2=O)cc1
7. COc1ccc(/C=C/c2nc(-c3cccc(-c4ccnn4C)c3)no2)cc1OC
8. Cc1ccc2nc(NC(=O)C3CCN(C(=O)C4Sc5ccccc5NC4=O)CC3)sc2c1 (stereo not given)

Given back:
664
1100
731
718
888
623
1050
838

Please state RP-LC retention time for every compound in the list that follows.
1. COc1cc(-c2noc(Cn3ncn4nc(-c5ccc(F)cc5)cc4c3=O)n2)cc(OC)c1OC
2. CCOC(=O)Cn1nc2ccc(S(=O)(=O)N3CCC(C)CC3)cn2c1=O
3. CCc1nnc([C@@H]2CC(F)(F)CN2C(=O)c2n[nH]c3ccccc23)o1
4. O=C(Cn1ncc2c(N3CCN(c4ccccn4)CC3)ncnc21)Nc1ccc(F)cc1Cl
5. Cc1nc(-c2ccc(N3CCN(C(=O)c4cccc(F)c4)CC3)nc2)sc1C

Given back:
1020
877
734
650
921
